All figures here come from PubChem BioAssay.

- assay text: small-molecule microarray binders of probe aLefty2, primary screen, biochemical, biotinylated probe, 635/667 nm fluorescence (AID 1094);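 note: score merges spot fluorescence near 667 nm with spot signal-to-noise ratio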
- condition notes: higher = more signal
Record t whenever composite z-score is at 0.1 or higher; record f when lower.

stdin: Could you verify whether the entry C[C@]1(C(=O)O)c2ccccc2C(=O)N(Cc2ccc(OC(F)(F)F)cc2)[C@H]1c1ccc(CO)cc1 shows composite z-score of no less than 0.1?
stdout: t

stdin: Entry C=C(/C(=C/C[C@H](OC(=O)c1ccncc1)c1ccccc1OCCO)c1cnc2ccccc2c1)C(C)C : is its composite z-score no less than 0.1?
stdout: f

stdin: In plain terms: is recorded composite z-score at least 0.1 for C#C[C@@H](CC)O[Si](C#CCCCC#N)(C(C)C)C(C)C ?
stdout: f

stdin: Confirm if composite z-score reported for the compound O=C1C2C=CC(C(O)c3ccc(I)cc3)N(Nc3ccccc3)C2C(=O)N1c1ccccc1 (stereo not drawn) is 0.1 or above.
stdout: t

stdin: Threshold query (composite z-score >= 0.1) on CO[C@H]1O[C@H](CO)[C@@H](OC(=O)Nc2cccc(F)c2)[C@H](OC(=O)Nc2ccccc2-c2ccccc2)[C@H]1OC(=O)Nc1ccccc1-c1ccccc1
stdout: f

stdin: Can CCOC(=O)C1=CC[C@@H](c2ccccc2)N(S(=O)(=O)c2ccc(C)cc2)[C@H]1c1cccc(OC)c1 be said to have composite z-score at or above 0.1?
stdout: t

stdin: Tell me whether composite z-score is at least 0.1 here: COCCOC(=O)N1C(=O)[C@@]2(c3cc(C#CCC(C(=O)OC)C(=O)OC)ccc31)[C@H](C(=O)NC[C@H](O)c1ccccc1)[C@H]1C(=O)O[C@H](c3ccccc3)[C@H](c3ccccc3)N1[C@@H]2c1ccc(O)cc1
stdout: f

stdin: State whether the measured composite z-score reaches 0.1, counting equality as reaching it, for COc1cc(NN2C(C(O)c3cc(OC)c(OC)c(OC)c3)C=CC3C(=O)N(c4ccccc4)C(=O)C32)cc(OC)c1OC (stereo not drawn)
stdout: t
